B1: TPR 5TU (parent)
chain: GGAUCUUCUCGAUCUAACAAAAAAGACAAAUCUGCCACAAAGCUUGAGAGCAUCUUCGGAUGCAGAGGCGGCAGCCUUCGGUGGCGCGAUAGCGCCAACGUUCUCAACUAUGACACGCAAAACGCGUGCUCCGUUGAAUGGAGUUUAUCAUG

- Variants of: B1
- ASSAY PROTOCOL: polymerase ribozyme fitness, log enrichment relative to wild type (log ratio); higher = more active; in vitro selection for triplet polymerase activity
Fewer inactive variants are shown than the library holds.
Think of -3 as a floor: if polymerase ribozyme fitness (log ratio) stands on it or above, it is Fulfilled; beneath it, Not fulfilled.

Solved entries (count: 6):
MUTATION SPEC	CLASS LABEL
A23C A24G A28C C63U G67A A121U U144A	Not fulfilled
C93A A98U C125G C131U	Fulfilled
C14G C63U G67C U77A C85A G124C	Not fulfilled
A17U C87U C125U	Fulfilled
C8G U61G G81A C87U G92C A121G C132A U144A G152A	Not fulfilled
C5G C8U A24G G34A A41G G70C A107G G124U U151G	Not fulfilled

Ask | Decide: polymerase ribozyme fitness (log ratio) of A17U G58U G74C G86A >= -3?
Reply | Not fulfilled

Ask | Tell me whether polymerase ribozyme fitness (log ratio) is at least -3 here: A64G G67U G84U C103A G112C A115U U146C
Reply | Not fulfilled

Ask | Could you verify whether the entry C8U A19C A40G C96U A142U shows polymerase ribozyme fitness (log ratio) of no less than -3?
Reply | Not fulfilled

Ask | Identify whether the reported polymerase ribozyme fitness (log ratio) of the following variant is -3 or greater: A20U A37C A52G G124U
Reply | Fulfilled

Ask | Threshold query (polymerase ribozyme fitness (log ratio) >= -3) on A3C A16C G48A C96G
Reply | Not fulfilled

Ask | Is polymerase ribozyme fitness (log ratio) at least -3? Consider A20U U61A
Reply | Fulfilled

Ask | Hi team, for U7G C8G U45G A66U C85U A138U , is the recorded polymerase ribozyme fitness (log ratio) at or above -3?
Reply | Not fulfilled

Ask | Please indicate if the recorded polymerase ribozyme fitness (log ratio) for C76U C93G C132U meets or exceeds -3.
Reply | Not fulfilled

Ask | Kindly determine if polymerase ribozyme fitness (log ratio) recorded for C8U U44G U55A C79U G88A A110U is above or exactly -3.
Reply | Not fulfilled

Ask | Is polymerase ribozyme fitness (log ratio) for G62U A115C at or above -3?
Reply | Fulfilled

Ask | Given C14G C18U C57U G65A G83A A106C G117U , state whether its polymerase ribozyme fitness (log ratio) is at least -3.
Reply | Not fulfilled

Ask | Could you verify whether the entry C14G G50A G58C U82C G141C shows polymerase ribozyme fitness (log ratio) of no less than -3?
Reply | Not fulfilled

Ask | Please tell me: is the variant C35A U77C G83A A106C G126A U134G at or over -3 in terms of polymerase ribozyme fitness (log ratio)?
Reply | Not fulfilled

Ask | Does the reported polymerase ribozyme fitness (log ratio) for A39U A49C A137G fall at or above the -3 mark?
Reply | Not fulfilled

Ask | API: above_or_equal(metric=polymerase ribozyme fitness (log ratio), cutoff=-3) for item U56A G80U G84U U102G G124U
Reply | Not fulfilled

Ask | Confirm if polymerase ribozyme fitness (log ratio) reported for the variant A3G C10G A41G C76A U145A is -3 or above.
Reply | Not fulfilled

Ask | Given the entry C38U C96G G152U , answer whether its polymerase ribozyme fitness (log ratio) meets or surpasses -3.
Reply | Not fulfilled

Ask | Is polymerase ribozyme fitness (log ratio) at least -3? Consider C5A A37U C51U U56A C79A C96G C116G G133C
Reply | Not fulfilled

Ask | Identify whether the reported polymerase ribozyme fitness (log ratio) of the following variant is -3 or greater: C57G C116A
Reply | Fulfilled
